The reported measurements were obtained from paper PMC9352680.

- experimental-target: T1, PUF4 RNA-binding domain (Saccharomyces cerevisiae, UniProt P25339 537-888)
- T1 sequence: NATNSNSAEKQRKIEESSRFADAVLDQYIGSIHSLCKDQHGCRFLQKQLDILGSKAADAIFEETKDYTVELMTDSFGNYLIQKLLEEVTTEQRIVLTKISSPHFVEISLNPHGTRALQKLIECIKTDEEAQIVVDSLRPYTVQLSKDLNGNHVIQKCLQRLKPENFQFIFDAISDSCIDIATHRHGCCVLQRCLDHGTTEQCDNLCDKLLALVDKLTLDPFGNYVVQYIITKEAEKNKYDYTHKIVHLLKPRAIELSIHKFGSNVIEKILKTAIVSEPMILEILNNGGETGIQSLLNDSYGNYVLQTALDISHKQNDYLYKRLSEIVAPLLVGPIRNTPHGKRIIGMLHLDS
- procedure-details: Mg; RNA-MaP; 20 mM Na-HEPES pH 7.4, 30 mM KOAc, 0.75 mM MgCl2, 0.1% Tween-20, 5% glycerol, 0.1 mg/mL BSA, 2 mM DTT; 25 C; 0.0125-409.6 nM protein
- test-context: tags: N-His6-TEV cleaved; C-SNAP kept, Cy3B-labelled; label: tethered on chip by stalled RNA polymerase
pKd: −log10 of the molar value.
pKd by entry:

>  <binder>
Id_ii_S2_P4E.3_K4.2_C4.2_[C-2T]_H4.2_A4.1_F4.1_T4.2_[G10T]_[T11G] (ssRNA) RNA: UUUGAUUAAUAUGAUAUCGUUCUUUCUUUUAUAUAUUAUGUUCUUUCUCGAUAUCAUAUUAAUCUUU

>  <pKd>
8.20

$$$$
>  <binder>
Id_ii_S2_P4E.4_K4.3_C4.2_[T-1C]_H4.3_A4.1_F4.1_T4.2_[G10T] (ssRNA) RNA: UUUGAUUAAUAUGAUAUCGUUCUUUCUCCACACUAUUAUUUUCUUUCUCGAUAUCAUAUUAAUCUUU

>  <pKd>
5.69

$$$$
>  <binder>
UCUCUUUGUAUCGAUCUCUU (ssRNA) [Ib_S1_P3E.1_K3.1_C3.1_H3.1_A3.1_[A6C]_F3.1_[T7G]_T3.1]

>  <pKd>
5.99

$$$$
>  <binder>
UCUCUUCAUAUAUAUUACAUCUCUU (ssRNA) [Id_ii_S1_P4E.3_K4.2_C4.2_[T-1A]_H4.2_A4.1_F4.1_T4.2_[G10C]_[T11A]]

>  <pKd>
7.56

$$$$
>  <binder>
Ie_S2_P5E.1_K5.1_C5.1_H5.1_[+1TCT]_A5.1_F5.1_T5.1 (ssRNA) RNA: UUUGAUUAAUAUGAUAUCGUUCUUUCUUUCUGUAUUAUUAUUCUUUCUCGAUAUCAUAUUAAUCUUU

>  <pKd>
8.94

$$$$
>  <binder>
UCUCUUUGUAGCCUUUCUCUU (ssRNA) [Ic_S1_P4E.1_K4.1_C4.1_H4.1_A4.1_[T5G]_[A6C]_[T7C]_F4.1_[A9T]_T4.1]

>  <pKd>
6.17

$$$$
>  <binder>
Ie_S2_P4E.1_K4.1_C4.1_H4.1_A4.1_F4.1_[+8CTT]_T4.1 (ssRNA) RNA: UUUGAUUAAUAUGAUAUCGUUCUUUCUUGUAUAUUCUUAUUCUUUCUCGAUAUCAUAUUAAUCUUU

>  <pKd>
8.34

$$$$
>  <binder>
UCUCUUCCUGUAUAUACUUCUCUU (ssRNA) [Id_ii_S1_P3E.2_K3.1_C3.2_[T-1C]_H3.1_A3.1_F3.1_T3.2_[T9C]_[A10T]]

>  <pKd>
8.16

$$$$
>  <binder>
Ie_S4_P5E.1_K5.1_C5.1_H5.1_A5.1_F5.1_[+10TCTCT]_T5.1 (ssRNA) RNA: UUUGACAACUGAUCGUUCUUUCUUGUAUUAUUAUCUCUUUCUUUCUCGAUCAGUUGUCUUU

>  <pKd>
8.44

$$$$
>  <binder>
Ic_S2_P4E.1_K4.1_C4.1_H4.1_A4.1_[A6T]_[T7C]_F4.1_T4.1 (ssRNA) RNA: UUUGAUUAAUAUGAUAUCGUUCUUUCUUGUAUUCUAUUCUUUCUCGAUAUCAUAUUAAUCUUU

>  <pKd>
9.00

$$$$
>  <binder>
UCUCUUAGUAUAUAUAUUUCUCUU (ssRNA) [Id_ii_S1_P3E.3_K3.2_C3.2_[C-2A]_[T-1G]_H3.2_A3.1_F3.1_T3.2_[A10T]]

>  <pKd>
6.34

$$$$
>  <binder>
Id_ii_S4_P4E.2_K4.1_C4.2_[T-1C]_H4.1_A4.1_F4.1_T4.2_[G10T]_[T11G] (ssRNA) RNA: UUUGACAACUGAUCGUUCUUUCUCCUGUAUAUUAUGUUCUUUCUCGAUCAGUUGUCUUU

>  <pKd>
9.76

$$$$
